Data credit: patent US20200199102A1

experimentalSystem: Cyclophilin A (Homo sapiens, UniProt P62937)
Construct: made in house
Sequence (P62937 whole entry, species assumed): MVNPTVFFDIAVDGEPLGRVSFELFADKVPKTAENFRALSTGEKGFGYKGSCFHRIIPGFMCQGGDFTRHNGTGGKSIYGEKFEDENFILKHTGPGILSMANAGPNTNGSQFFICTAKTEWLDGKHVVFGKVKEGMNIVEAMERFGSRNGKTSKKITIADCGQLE
test: AlphaLISA inhibition of binding of biotinylated Cyclosporin A to FLAG tagged Cyclophilin A
recordedConditions: AlphaLISA signal; test concentration not given
Where a SMILES comes first, the peptide text is derived from it. [ ]: non-standard residue; d: D form. MeBmt = C/C=C/C[C@@H](C)[C@@H](O)[C@H](NC)C(=O)O; NMeL = CN[C@@H](CC(C)C)C(=O)O; NMeV = CN[C@H](C(=O)O)C(C)C; dNMeA = CN[C@H](C)C(=O)O; Abu = CC[C@H](N)C(=O)O; Sar = CNCC(=O)O
Below is a list of entries, each paired with its recorded % signal value.
observationType: % signal (%)

C/C=C/C[C@@H](C)[C@@H](O)[C@H]1C(=O)N[C@@H](CC)C(=O)N(C)CC(=O)N(C)[C@H](C)C(=O)N[C@@H](C(C)C)C(=O)N(C)[C@@H](CC(C)C)C(=O)N[C@@H](CC)C(=O)N[C@H](C)C(=O)N(C)[C@@H](CC(C)C)C(=O)N(C)[C@@H](CC(C)C)C(=O)N(C)[C@@H](C(C)C)C(=O)N1C [Compound C95] (cyclo([Abu][Sar][dNMeA]V[NMeL][Abu][dA][NMeL][NMeL][NMeV][MeBmt])): 6.90
C/C=C/C[C@@H](C)[C@@H](O)[C@H]1C(=O)N[C@@H](CC)C(=O)N(C)CC(=O)N(C)[C@H](C(C)C)C(=O)N[C@@H](C(C)C)C(=O)N(C)[C@@H](CC(C)C)C(=O)N[C@@H](C)C(=O)N[C@H](C)C(=O)N(C)[C@@H](CC(C)C)C(=O)N(C)[C@@H](CC(C)C)C(=O)N(C)[C@@H](C(C)C)C(=O)N1C: 1.26

###

experimentalSystem: Cyclophilin A (Homo sapiens)
Construct: made in house
test: AlphaLISA inhibition of binding of biotinylated Cyclosporin A to FLAG tagged Cyclophilin A
recordedConditions: AlphaLISA signal; test concentration not given
Where a SMILES comes first, the peptide text is derived from it. [ ]: non-standard residue; d: D form. MeBmt = C/C=C/C[C@@H](C)[C@@H](O)[C@H](NC)C(=O)O; NMeL = CN[C@@H](CC(C)C)C(=O)O; dNMeV = CN[C@@H](C(=O)O)C(C)C; Tle = CC(C)(C)[C@H](N)C(=O)O; NMeV = CN[C@H](C(=O)O)C(C)C; NMeA = CN[C@@H](C)C(=O)O; Abu = CC[C@H](N)C(=O)O; Sar = CNCC(=O)O
observationType: % signal (%)

C/C=C/C[C@@H](C)[C@@H](O)[C@H]1C(=O)N[C@@H](CC)C(=O)N(C)CC(=O)N(C)CC(=O)N[C@@H](C(C)C)C(=O)N(C)[C@@H](CC(C)C)C(=O)N[C@@H](CC)C(=O)N[C@H](C)C(=O)N(C)[C@@H](CC(C)C)C(=O)N(C)[C@@H](CC(C)C)C(=O)N(C)[C@@H](C(C)C)C(=O)N1C [Compound C97] (cyclo([Abu][Sar][Sar]V[NMeL][Abu][dA][NMeL][NMeL][NMeV][MeBmt])): 6.42
C/C=C/C[C@@H](C)[C@@H](O)[C@H]1C(=O)N[C@@H](CC)C(=O)N(C)CC(=O)N(C)[C@@H](CC(C)C)C(=O)N[C@@H](C)C(=O)N(C)CC(=O)N[C@@H](C)C(=O)N[C@H](C)C(=O)N(C)[C@@H](CC(C)C)C(=O)N(C)[C@@H](CC(C)C)C(=O)N(C)[C@@H](C(C)C)C(=O)N1C [Compound C22] (cyclo([MeBmt][Abu][Sar][NMeL]A[Sar]A[dA][NMeL][NMeL][NMeV])): 5.97
C/C=C/C[C@@H](C)[C@@H](O)[C@H]1C(=O)N[C@@H](CC)C(=O)N(C)CC(=O)N(C)[C@H](C(C)C)C(=O)N[C@@H](C(C)(C)C)C(=O)N(C)[C@@H](C)C(=O)N[C@@H](CC(C)C)C(=O)N[C@H](C)C(=O)N(C)[C@@H](CC(C)C)C(=O)N(C)[C@@H](CC(C)C)C(=O)N(C)[C@@H](C(C)C)C(=O)N1C [Compound C79] (cyclo([MeBmt][Abu][Sar][dNMeV][Tle][NMeA]L[dA][NMeL][NMeL][NMeV])): 3.24

###

Below is a list of entries, each paired with its recorded pKd value.
experimentalSystem: FKBP12 (Homo sapiens, UniProt P62942)
Sequence (P62942 whole entry, species assumed): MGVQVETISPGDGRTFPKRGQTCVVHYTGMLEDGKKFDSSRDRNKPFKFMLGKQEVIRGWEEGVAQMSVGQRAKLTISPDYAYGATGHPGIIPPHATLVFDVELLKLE
test: SPR binding of compound (analyte) to immobilized FKBP12
recordedConditions: read-out: SPR affinity to FKBP12: KD; 25° C., Table 7
pKd: −log10 of the molar value.
observationType: pKd

CC1=CC2=CC(O)C(C=C2)OC(=O)C2CCCCN2C(=O)C(=O)C2(O)OC(CCC2C)C(C)C(O)C=CC(C)CCC(O)C(C)=CC(C)C1 (stereo not drawn): 7.67
CC1=CCC(O)CC(C(C)=CC(C)=CC2C=CC(O)C(O)C2)OC(=O)C2CCCCN2C(=O)CC2(O)OC(C(C)CC=CCC(O)C=C1)C(C)CC2C (stereo not drawn): 6.85
COC1C(O)CCC(CC(C)C2CCCC=CCC(C)=CCC3OC(O)(C(=O)C(=O)N4CCCCC4C(=O)O2)C(C)CC3C)C1O (stereo not drawn): 9.64
CCC1C=C(C)C(O)CCC(C)C=CC(O)C(C)C2CCC(C)C(O)(O2)C(=O)C(=O)N2CCCCC2C(=O)OC2C=CC(=CC2O)C=C(C)C1 (stereo not drawn): 7.76
CC[C@H](Cc1ccccc1)[C@@H]1/C=C/C/C=C/C[C@@H](C)[C@H](O)[C@@H](C)[C@@H]2CC[C@@H](C)C(=O)C(O)(O2)C(=O)N2CCCC[C@H]2C(=O)O1: 7.90
CCC(Cc1ccccc1)C1C=CCC=CCC(C)C(O)C(C)C2CCC(C)C(O)(CC(=O)N3CCCCC3C(=O)O1)O2 (stereo not drawn): 7.15

###

experimentalSystem: Cyclophilin A (Homo sapiens)
Construct: made in house
test: AlphaLISA inhibition of binding of biotinylated Cyclosporin A to FLAG tagged Cyclophilin A
recordedConditions: AlphaLISA signal; test concentration not given
Method: The binding of compounds of the invention to Cyclophilin A can be determined using the following protocol. […] Add 20 uL of 6 nM Biotinylated CsA working stock to each well of the 96-well plate. […] Protect plate from light until reading on Biotek Synergy2 Plate Reader; Alphalisa 96-well protocol (680 excitation/615 emission).
Where a SMILES comes first, the peptide text is derived from it. [ ]: non-standard residue; d: D form. MeBmt = C/C=C/C[C@@H](C)[C@@H](O)[C@H](NC)C(=O)O; NMeI = CC[C@H](C)[C@H](NC)C(=O)O; NMeT = CN[C@H](C(=O)O)[C@@H](C)O; NMeL = CN[C@@H](CC(C)C)C(=O)O; dNMeV = CN[C@@H](C(=O)O)C(C)C; NMeV = CN[C@H](C(=O)O)C(C)C; NMeA = CN[C@@H](C)C(=O)O; Abu = CC[C@H](N)C(=O)O; Sar = CNCC(=O)O
observationType: % signal

C/C=C/C[C@@H](C)[C@@H](O)[C@H]1C(=O)N[C@@H](CC)C(=O)N(C)CC(=O)N(C)CC(=O)N[C@@H](CC(C)C)C(=O)N(C)[C@@H](C)C(=O)N[C@@H](C)C(=O)N[C@H](C)C(=O)N(C)[C@@H](CC(C)C)C(=O)N(C)[C@@H](CC(C)C)C(=O)N(C)[C@@H](C(C)C)C(=O)N1C [Compound C13] (cyclo([MeBmt][Abu][Sar][Sar]L[NMeA]A[dA][NMeL][NMeL][NMeV])): 2.70%
C/C=C/C[C@@H](C)[C@@H](O)[C@H]1C(=O)N[C@@H](CC)C(=O)N(C)CC(=O)N(C)[C@@H]([C@@H](C)CC)C(=O)N[C@@H](CC(C)C)C(=O)N(C)[C@@H](C)C(=O)N[C@@H](C)C(=O)N[C@H](C)C(=O)N(C)[C@@H](CC(C)C)C(=O)N(C)[C@@H](CC(C)C)C(=O)N(C)[C@@H](C(C)C)C(=O)N1C [Compound C9] (cyclo([MeBmt][Abu][Sar][NMeI]L[NMeA]A[dA][NMeL][NMeL][NMeV])): 0.11%
C/C=C/C[C@@H](C)[C@@H](O)[C@H]1C(=O)N[C@@H](CC)C(=O)N(C)CC(=O)N(C)[C@H](C(C)C)C(=O)N[C@@H](C(C)C)C(=O)N(C)[C@@H](CC(C)C)C(=O)N[C@@H](CC)C(=O)N[C@H](C)C(=O)N(C)[C@@H](CC(C)C)C(=O)N(C)[C@@H](CC(C)C)C(=O)N(C)[C@@H](C(C)C)C(=O)N1C [Compound C103] (cyclo([Abu][Sar][dNMeV]V[NMeL][Abu][dA][NMeL][NMeL][NMeV][MeBmt])): 13.65%
C/C=C/C[C@@H](C)[C@@H](O)[C@H]1C(=O)N[C@@H](CC)C(=O)N(C)CC(=O)N(C)CC(=O)N[C@@H](C(C)C)C(=O)N(C)CC(=O)N[C@@H](C)C(=O)N[C@H](C)C(=O)N(C)[C@@H](CC(C)C)C(=O)N(C)[C@@H](CC(C)C)C(=O)N(C)[C@@H](C(C)C)C(=O)N1C [Compound C28] (cyclo([MeBmt][Abu][Sar][Sar]V[Sar]A[dA][NMeL][NMeL][NMeV])): 1.06%
C/C=C/C[C@@H](C)[C@@H](O)[C@H]1C(=O)N[C@@H](CC)C(=O)N(C)CC(=O)N(C)[C@@H]([C@@H](C)O)C(=O)N[C@@H](C(C)C)C(=O)N(C)[C@@H](C)C(=O)N[C@@H](C)C(=O)N[C@H](C)C(=O)N(C)[C@@H](CC(C)C)C(=O)N(C)[C@@H](CC(C)C)C(=O)N(C)[C@@H](C(C)C)C(=O)N1C [Compound C7] (cyclo([MeBmt][Abu][Sar][NMeT]V[NMeA]A[dA][NMeL][NMeL][NMeV])): 2.65%
